- target.system: H-PGDS (Homo sapiens (Human), UniProt O60760)
- Sequence (O60760 whole entry): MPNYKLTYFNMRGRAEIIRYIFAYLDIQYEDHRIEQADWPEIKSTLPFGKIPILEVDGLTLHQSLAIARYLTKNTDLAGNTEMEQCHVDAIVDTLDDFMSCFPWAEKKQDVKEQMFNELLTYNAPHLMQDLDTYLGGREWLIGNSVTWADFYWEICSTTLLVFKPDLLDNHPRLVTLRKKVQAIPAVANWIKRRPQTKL
- test.description: H-PGDS catalyzed conjugation of GSH and CDNB, enzyme inhibition assay
- Format: biochemical
- applied.conditions: 50 μM compound; mean ± standard error of triplicate experiments; read-out: I[50], percent inhibition at 50 μM
quantity.kind: inhibition at 50 µM
In your response, the unit should come after the numeric value.

- compound: "Cc1cc(-c2ccc(C(=O)N[C@@H](Cc3ccccc3)C(N)=O)cn2)sc1C#N [Compound 22]"
  reading: "34.6%"
- compound: "O=C(c1ccc(-c2cccs2)nc1)N1CCC(N2C(=O)OCc3ccccc32)CC1 [Compound 13]"
  reading: "87.9%"
- compound: "N#Cc1ccc(-c2ccc(C(=O)N[C@@H](Cc3ccccc3)C(N)=O)cn2)s1 [Compound 20]"
  reading: "67.9%"

# context switch: different compound, same inhibition at 50 µM
Measured inhibition at 50 µM of NC(=O)[C@H](Cc1ccccc1)NC(=O)c1ccc(-c2ccc(C(=O)O)s2)nc1 [Compound 15] : 19.4%

Taken from patent US9199976B2.
